Target: CCR1 (Homo sapiens)
Sequence (P32246 whole entry): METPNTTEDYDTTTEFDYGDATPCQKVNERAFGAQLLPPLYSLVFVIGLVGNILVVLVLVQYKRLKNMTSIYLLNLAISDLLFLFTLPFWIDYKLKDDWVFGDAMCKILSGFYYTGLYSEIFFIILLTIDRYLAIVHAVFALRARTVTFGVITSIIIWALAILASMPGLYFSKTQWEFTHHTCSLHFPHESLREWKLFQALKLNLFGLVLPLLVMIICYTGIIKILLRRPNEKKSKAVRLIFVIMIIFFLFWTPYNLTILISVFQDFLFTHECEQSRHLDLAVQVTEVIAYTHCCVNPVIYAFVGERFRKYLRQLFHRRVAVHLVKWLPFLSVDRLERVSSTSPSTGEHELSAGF
Test: Calcium flux in response to MIP-1 alpha in CCR1-transfected cells, Method A (Fluo-4 NW, FLIPR TETRA)
Assay type: cell-based
Conditions: cells stably expressing recombinant CCR1 and G-alpha-16; MIP-1 alpha at EC80; 1 hour incubation at room temperature
pIC50: −log10 of the molar value.
value.kind: pIC50

In [3]: df
Out[3]:
                  compound_structure_string               target  value_kind  observed_result
0  CN1CCC(N(C)S(=O)(=O)c2ccc(CNC(=O)c3cccc4c3cnn4-c3ccc(F)cc3)cc2)CC1  CCR1 (Homo sapiens)       pIC50             7.36
1  COc1cc(CNC(=O)c2cccc3c2cnn3-c2ccc(F)cc2)ccn1  CCR1 (Homo sapiens)       pIC50             7.66
2  CS(=O)(=O)c1ccc(CNC(=O)c2cc(C#N)cc3c2cnn3-c2ccc(F)cc2)cn1  CCR1 (Homo sapiens)       pIC50             8.15
3  CNS(=O)(=O)c1ccc(CNC(=O)c2cccc3c2cnn3-c2ccc(F)cc2)c(Cl)c1  CCR1 (Homo sapiens)       pIC50             8.40
4  CCOC(=O)COc1cc(CNC(=O)c2cccc3c2cnn3-c2ccc(F)cc2)ccn1  CCR1 (Homo sapiens)       pIC50             6.85
5  O=C(NCc1ccc(S(=O)(=O)N2CCOCC2)cc1)c1cccc2c1cnn2-c1ccc(F)cc1  CCR1 (Homo sapiens)       pIC50             7.85
6  N#Cc1cc(C(=O)NCc2ccc(Br)nc2)c2cnn(-c3ccc(F)cc3)c2c1  CCR1 (Homo sapiens)       pIC50             7.68
7  CCC[C@H](NC(=O)c1cccc2c1cnn2-c1ccc(F)cc1)c1cccc(Br)c1  CCR1 (Homo sapiens)       pIC50             7.72
8  N#Cc1cc(CNC(=O)c2cccc3c2cnn3-c2ccc(F)cc2)ccn1  CCR1 (Homo sapiens)       pIC50             6.92
9  CNS(=O)(=O)c1ccc(CNC(=O)c2cc(C#N)cc3c2cnn3-c2ccc(F)cc2)cc1  CCR1 (Homo sapiens)       pIC50             9.52
